Experiment: Pharmacokinetic study in rats after single oral administration of ZGI, DGE, PA or S. officinalis extract (plasma, UHPLC-MS/MS)
Assay type: in vivo, Sprague-Dawley rats
Details: male, Sprague-Dawley; analyte ZGI in rat plasma; single oral dose of the row's substance (S. officinalis extract 0.55 g/kg, ZGI 0.03 g/kg); n = 6; mean ± SD
observation-type: Cmax (µg/mL)
Report the figure in µg/mL without appending any unit label.

Exercise: Suppose we examine the compound C[C@@H]1CC[C@]2(C(=O)O[C@@H]3O[C@H](CO)[C@@H](O)[C@H](O)[C@H]3O)CC[C@]3(C)C(=CC[C@@H]4[C@@]5(C)CC[C@H](O[C@@H]6OC[C@H](O)[C@H](O)[C@H]6O)C(C)(C)[C@@H]5CC[C@]43C)[C@@H]2[C@]1(C)O [ZGI, Ziyuglycoside I] ; what Cmax value has been reported?
Key: 0.678
